# System: NCI-H1876 tumor spheroid viability
# measurement protocol: Anticancer human tumor NCI-H1876 cell line growth inhibition;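 further: spheroids exposed to compounds for seven days before the viability read; percent of DMSO vehicle control viability so 100% = vehicle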
# assay conditions: second compound 0.003 µM; first compound 10 µM; active compounds read low; spheroids with HUVEC and MSC
Catalogue of viability, T/C readings, one per entry.
Please reply with the bare figure in % and do not write the unit itself.

Look over these answered cases.
Entry CC1COCCN1c1cc(-c2ccnn2C)c2ccnc(-c3ccn[nH]3)c2n1 (configuration not stated) + CC[C@@]1(O)C(=O)OCc2c1cc1n(c2=O)Cc2cc3c(CN(C)C)c(O)ccc3nc2-1 ; viability, T/C = 3.12

Entry Cc1cc(C)c(CNC(=O)c2cc(-c3ccc(CN4CCOCC4)cc3)cc3c2cnn3C2CCCC2)c(=O)[nH]1 + COc1cc2c(cc1O)CCNC21CSC2c3c(OC(C)=O)c(C)c4c(c3C(COC1=O)N1C(O)C3Cc5cc(C)c(OC)c(O)c5C(C21)N3C)OCO4 ; viability, T/C = 0.88

Entry CC1COCCN1c1cc(-c2ccnn2C)c2ccnc(-c3ccn[nH]3)c2n1 (configuration not stated) + COc1cc2c(cc1O)CCNC21CSC2c3c(OC(C)=O)c(C)c4c(c3C(COC1=O)N1C(O)C3Cc5cc(C)c(OC)c(O)c5C(C21)N3C)OCO4 ; viability, T/C = 0.28

Entry [2H]c1nc(C)nc([2H])c1-c1cc(NC[C@@H](C)c2cccc3c(C(=O)NC)ccnc23)ncn1 + COc1cc2c(cc1O)CCNC21CSC2c3c(OC(C)=O)c(C)c4c(c3C(COC1=O)N1C(O)C3Cc5cc(C)c(OC)c(O)c5C(C21)N3C)OCO4 ; viability, T/C = 0.7

Continuing:
Entry COc1ccc([C@@H](O)c2cc(-c3ncnc4cc(N5CCOCC5)ccc34)c(F)cc2Cl)nn1 + COc1cc2c(cc1O)CCNC21CSC2c3c(OC(C)=O)c(C)c4c(c3C(COC1=O)N1C(O)C3Cc5cc(C)c(OC)c(O)c5C(C21)N3C)OCO4 ; viability, T/C = 0.33
